target: PDGF-R (Homo sapiens); experiment: PDGF-R ELISA; type: cell-based
Sequence (P09619 33-1106, species assumed): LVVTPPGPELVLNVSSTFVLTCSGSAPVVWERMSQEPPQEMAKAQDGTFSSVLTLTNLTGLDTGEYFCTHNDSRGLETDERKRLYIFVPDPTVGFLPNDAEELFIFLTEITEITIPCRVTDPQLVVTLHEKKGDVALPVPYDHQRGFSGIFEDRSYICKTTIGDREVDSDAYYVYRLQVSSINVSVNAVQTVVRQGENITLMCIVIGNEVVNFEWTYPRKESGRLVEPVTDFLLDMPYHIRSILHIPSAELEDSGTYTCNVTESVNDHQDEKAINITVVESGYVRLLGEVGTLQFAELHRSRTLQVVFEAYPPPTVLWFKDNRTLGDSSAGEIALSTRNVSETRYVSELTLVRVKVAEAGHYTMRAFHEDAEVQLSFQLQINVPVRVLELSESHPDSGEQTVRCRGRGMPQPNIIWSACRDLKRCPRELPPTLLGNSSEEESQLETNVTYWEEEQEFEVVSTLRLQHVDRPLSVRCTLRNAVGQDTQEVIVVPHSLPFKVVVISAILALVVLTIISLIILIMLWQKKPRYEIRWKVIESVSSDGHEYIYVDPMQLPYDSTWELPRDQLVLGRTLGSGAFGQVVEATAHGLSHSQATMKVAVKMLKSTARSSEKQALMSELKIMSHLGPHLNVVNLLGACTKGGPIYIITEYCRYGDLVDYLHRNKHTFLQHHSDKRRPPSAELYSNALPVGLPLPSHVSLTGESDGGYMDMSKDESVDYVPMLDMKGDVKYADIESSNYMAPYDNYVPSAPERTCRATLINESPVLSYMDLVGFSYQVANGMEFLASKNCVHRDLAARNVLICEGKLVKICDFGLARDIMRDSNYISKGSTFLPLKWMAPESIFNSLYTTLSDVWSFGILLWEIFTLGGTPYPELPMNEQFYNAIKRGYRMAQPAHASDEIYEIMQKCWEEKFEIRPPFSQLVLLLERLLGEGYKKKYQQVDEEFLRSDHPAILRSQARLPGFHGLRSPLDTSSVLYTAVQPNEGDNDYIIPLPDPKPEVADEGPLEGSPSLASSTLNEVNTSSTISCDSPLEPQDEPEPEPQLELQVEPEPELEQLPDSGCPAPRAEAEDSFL
Lab note: compare PDGF Kinase %Inhibition with 20%, writing Y if less and N if equal or more.

compound	className
COC1CC(C=C2C(=O)Nc3ccc(Br)c(C)c32)C(OC)O1 (stereo not drawn) [10730/C10]	N
O=C1Nc2c(Br)cc(Br)cc2C1=Cc1cc2c(cc1Cl)OCO2 [10727/A06]	Y
Cc1cc(C=C2C(=O)Nc3ccc(S(=O)(=O)N4CCOCC4)cc32)[nH]n1 [10725/F05]	Y
CCCCN(CCCC)c1ccc(C=C2C(=O)Nc3ccc(S(=O)(=O)NC)cc32)cc1 [10722/D10]	N
CNS(=O)(=O)c1ccc2c(c1)C(=CC(c1cccs1)C(F)(F)F)C(=O)N2 (stereo not drawn) [10732/D02]	Y
COc1c(Cl)cc(C=C2C(=O)Nc3ccc(CCCl)cc32)cc1C(C)(C)C [10732/G09]	Y
O=C1Nc2ccc(I)cc2C1=Cc1coc2ccc([N+](=O)[O-])cc2c1=O [10731/B07]	Y
COc1cc(C)cc(O)c1C=C1C(=O)Nc2ccc(Br)c(C)c21 [10725/C06]	N
O=C1Nc2c(Br)cc(Br)cc2C1=CC(c1cccs1)C(F)(F)F (stereo not drawn) [10732/A02]	Y
COc1ccc(C=C2C(=O)Nc3ccc(I)cc32)c(O)c1 [10723/B09]	N
COc1ccc(Br)c(C=C2C(=O)Nc3c(Br)cc(Br)cc32)c1O [10725/A03]	Y
CNS(=O)(=O)c1ccc2c(c1)C(=Cc1cc(C)c(O)c(C(C)(C)C)c1)C(=O)N2 [10726/D04]	N
Cc1ccc2occ(C=C3C(=O)Nc4ccc(CCCl)cc43)c(=O)c2c1 [10731/G06]	Y
CC(=O)Oc1ccc(C=C2C(=O)Nc3ccc(CCCl)cc32)cc1OC(C)=O [10723/G05]	Y
COc1cc(Br)cc(C=C2C(=O)Nc3ccc(S(=O)(=O)N4CCOCC4)cc32)c1O [10733/F08]	Y
O=C1Nc2ccc(S(=O)(=O)Nc3ccc(C(F)(F)F)cc3)cc2C1=Cc1coc2ccccc2c1=O [10727/E07]	Y
CNS(=O)(=O)c1ccc2c(c1)C(=CC1C=CCCC1)C(=O)N2 (stereo not drawn) [10729/D11]	Y
CC(=O)Oc1ccc(C=C2C(=O)Nc3c(Br)cc(Br)cc32)cc1OC(C)=O [10723/A05]	Y
Cc1cc(C=C2C(=O)Nc3ccc(I)cc32)[nH]n1 [10725/B05]	N
CC(C)c1ccc2occ(C=C3C(=O)Nc4ccc(I)cc43)c(=O)c2c1 [10731/B05]	Y
O=C1Nc2ccc(S(=O)(=O)Nc3ccc(C(F)(F)F)cc3)cc2C1=Cc1sccc1Br [10725/E02]	Y
COc1ccc(OC)c(C=C2C(=O)Nc3ccc(Br)c(C)c32)c1 [10728/C02]	N
COc1ccc(OC)c(C=C2C(=O)Nc3c(Br)cc(Br)cc32)c1 [10728/A02]	Y
O=C1Nc2ccc(CCCl)cc2C1=Cc1cc([N+](=O)[O-])ccc1O [10733/G10]	Y
O=C1Nc2ccc(S(=O)(=O)N3CCOCC3)cc2C1=Cc1cc(Cl)ccc1O [10734/F04]	N
CNS(=O)(=O)c1ccc2c(c1)C(=Cc1ccc(C(F)(F)F)cc1)C(=O)N2 [10722/D11]	Y
CSc1ccc(C=C2C(=O)Nc3ccc(S(=O)(=O)Nc4ccc(C(F)(F)F)cc4)cc32)cc1 [10729/E04]	N
CNS(=O)(=O)c1ccc2c(c1)C(=Cc1cc(C(C)C)c(OC)c(C(C)C)c1)C(=O)N2 [10732/D03]	N
Cc1cc(C=C2C(=O)Nc3ccc(I)cc32)ccc1O [10723/B06]	N
CNS(=O)(=O)c1ccc2c(c1)C(=Cc1c[nH]c(=O)[nH]c1=O)C(=O)N2 [10731/D08]	Y
O=C1Nc2ccc(S(=O)(=O)N3CCOCC3)cc2C1=Cc1c(Br)cnn1-c1ccc(Cl)cc1 [10725/F10]	Y
O=C1Nc2c(Br)cc(Br)cc2C1=Cc1cc([N+](=O)[O-])ccc1O [10733/A10]	Y
Cc1c(Br)ccc2c1C(=Cc1ccc(N(C)C)c3ccccc13)C(=O)N2 [10724/C02]	Y
O=C1Nc2c(Br)cc(Br)cc2C1=Cc1ccncc1 [10729/A09]	Y
O=C1Nc2c(Br)cc(Br)cc2C1=Cc1coc2c(Br)cc(Br)cc2c1=O [10730/A09]	Y
